Value source: patent US6737383B1

Test system: rape
method: Test B pre/postemergence rape
Type: in vivo, Brassica napus
test_conditions: Rate 62 g/ha, Postemergence; scale of 0 to 10 where 0 is no effect and 10 is complete control
reported_property: Rape plant response rating

Item under review: "C=CCn1c(=O)on(C(=O)N(c2ccc(F)cc2F)C(C)C)c1=O" . Reported Rape plant response rating?
0

// returns reported Rape plant response rating for input "C=C(C)CCn1c(=O)on(C(=O)N(c2ccc(F)cc2)C(C)C)c1=O"
0

Give the measured Rape plant response rating of "CC(C)N(C(=O)n1oc(=O)n([C@H](C)c2ccccc2)c1=O)c1ccc(F)cc1" .
0

Please report the recorded Rape plant response rating for "CC(C)N(C(=O)n1oc(=O)n(C(C)(C)C)c1=O)c1ccc(Cl)cc1" .
0

Tell me the measured Rape plant response rating of "Cc1ccccc1-n1c(=O)on(C(=O)N(c2ccc(Cl)cc2Cl)C(C)C)c1=O" , please.
0

Need Rape plant response rating of "Cc1nn(C)c(Cl)c1-n1c(=O)on(C(=O)N(c2ccccc2)C(C)C)c1=O" , thanks.
0

---

I'd be grateful if you could share measured Nutsedge plant response rating for these entries.
System: purple nutsedge
method: Test B pre/postemergence purple nutsedge
Assay type: in vivo, Cyperus rotundus
test_conditions: Preemergence, Rate 250 g/ha; scale 0 (no effect) to 10 (complete control)

Nutsedge plant response rating for "CC(C)N(C(=O)n1oc(=O)n(CC(F)F)c1=O)c1ccc(F)cc1" ?
0

Would you mind telling me what Nutsedge plant response rating value was observed for COCC(OC)n1c(=O)on(C(=O)N(c2ccccc2)C(C)C)c1=O (stereo not drawn) ?
0

Which Nutsedge plant response rating value is on record for "C#CCn1c(=O)on(C(=O)N(c2ccccc2)C(C)C)c1=O" ?
3

---

Task for the reader: assign each of the following compounds its reported Plant response rating, Rape.
System: rape
method: Test B pre/postemergence rape
Type: in vivo, Brassica napus
test_conditions: Preemergence, Rate 500 g/ha; scale of 0 to 10 where 0 is no effect and 10 is complete control

Checklist item: Plant response rating, Rape tested on rape, entry CCC(C)n1c(=O)on(C(=O)N(c2ccccc2)C(C)C)c1=O (stereo not drawn) [Compound 611] , value?
10

Under rape: Plant response rating, Rape value of "CC(C)N(C(=O)n1oc(=O)n(CC(C)(C)C)c1=O)c1ccc(F)cc1F" ?
2

Please provide the recorded Plant response rating, Rape for "CC(C)N(C(=O)n1oc(=O)n(Cc2ccco2)c1=O)c1ccc(F)cc1F" , tested on rape.
0

---

System: wheat
method: Test B pre/postemergence wheat
Format: in vivo, Triticum aestivum
test_conditions: Preemergence, Rate 62 g/ha; scale 0 to 10 (0 no effect, 10 complete control)
For each record, write down the corresponding Wheat plant response rating.
Keep the answer to the number alone.

Item CC(C)N(C(=O)n1oc(=O)n(CNC(=O)c2ccccc2)c1=O)c1ccccc1 [Compound 620] with wheat - Wheat plant response rating?
0

# returns recorded Wheat plant response rating (system: wheat) for C=CCCCn1c(=O)on(C(=O)N(c2ccc(Cl)cc2)C(C)C)c1=O [Compound 546]
0

For wheat, provide Wheat plant response rating of CCCn1c(=O)on(C(=O)N(c2ccc(F)cc2F)C(C)C)c1=O [Compound 130] please.
2

Hi! What's the reported Wheat plant response rating for Cc1cc(C)c(-n2c(=O)on(C(=O)N(c3ccc(F)cc3)C(C)C)c2=O)c(C)c1 [Compound 60] on wheat?
0
